assay-system: binding partner of C5A (XPA23)
test: Biacore, K-off
measured-endpoint: log10 of fold difference in affinity vs original (log10 of the value in fold)
Short version: log10 scale, fold difference in affinity vs original, fold.

Examples with answers:
- binder: "C5A (XPA23) VH S54Y (antibody, V domains shown) VH: EVQLLESGGGLVQPGGSLRLSCAASGFTFSKYFMFWVRQAPGKGLEWVSVISPYGGMTRYADSVKGRFTISRDNSKNTLYLQMNSLRAEDTAVYYCARVGYGGNSDYWGQGTLVTVSS VL: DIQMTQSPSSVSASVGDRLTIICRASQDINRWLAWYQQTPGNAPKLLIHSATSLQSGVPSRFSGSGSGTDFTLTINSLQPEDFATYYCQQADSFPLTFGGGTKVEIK"
  numeric-readout: 0.00
- binder: "C5A (XPA23) VH M57Q (antibody, V domains shown) VH: EVQLLESGGGLVQPGGSLRLSCAASGFTFSKYFMFWVRQAPGKGLEWVSVISPSGGQTRYADSVKGRFTISRDNSKNTLYLQMNSLRAEDTAVYYCARVGYGGNSDYWGQGTLVTVSS VL: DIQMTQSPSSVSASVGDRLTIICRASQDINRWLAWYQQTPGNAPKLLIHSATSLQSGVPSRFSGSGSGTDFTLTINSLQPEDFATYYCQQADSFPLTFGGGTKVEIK"
  numeric-readout: -1.70
- binder: "C5A (XPA23) VH T58R (antibody, V domains shown) VH: EVQLLESGGGLVQPGGSLRLSCAASGFTFSKYFMFWVRQAPGKGLEWVSVISPSGGMRRYADSVKGRFTISRDNSKNTLYLQMNSLRAEDTAVYYCARVGYGGNSDYWGQGTLVTVSS VL: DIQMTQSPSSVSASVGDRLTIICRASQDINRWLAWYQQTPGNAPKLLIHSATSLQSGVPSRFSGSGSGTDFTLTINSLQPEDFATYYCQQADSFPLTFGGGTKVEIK"
  numeric-readout: 0.06
- binder: "C5A (XPA23) VH R59T (antibody, V domains shown) VH: EVQLLESGGGLVQPGGSLRLSCAASGFTFSKYFMFWVRQAPGKGLEWVSVISPSGGMTTYADSVKGRFTISRDNSKNTLYLQMNSLRAEDTAVYYCARVGYGGNSDYWGQGTLVTVSS VL: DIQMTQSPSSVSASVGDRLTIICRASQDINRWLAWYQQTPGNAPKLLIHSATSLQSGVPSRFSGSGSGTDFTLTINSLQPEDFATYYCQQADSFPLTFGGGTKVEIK"
  numeric-readout: -0.12
- binder: "C5A (XPA23) VH T58H (antibody, V domains shown) VH: EVQLLESGGGLVQPGGSLRLSCAASGFTFSKYFMFWVRQAPGKGLEWVSVISPSGGMHRYADSVKGRFTISRDNSKNTLYLQMNSLRAEDTAVYYCARVGYGGNSDYWGQGTLVTVSS VL: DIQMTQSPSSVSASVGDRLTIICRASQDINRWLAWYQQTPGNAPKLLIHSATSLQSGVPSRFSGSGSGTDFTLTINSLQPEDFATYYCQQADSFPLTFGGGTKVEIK"
  numeric-readout: -0.01
- binder: "C5A (XPA23) VH G56N (antibody, V domains shown) VH: EVQLLESGGGLVQPGGSLRLSCAASGFTFSKYFMFWVRQAPGKGLEWVSVISPSGNMTRYADSVKGRFTISRDNSKNTLYLQMNSLRAEDTAVYYCARVGYGGNSDYWGQGTLVTVSS VL: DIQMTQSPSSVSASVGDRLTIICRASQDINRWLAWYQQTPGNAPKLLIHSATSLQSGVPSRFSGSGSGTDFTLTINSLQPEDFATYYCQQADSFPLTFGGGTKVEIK"
  numeric-readout: 0.03
- binder: "C5A (XPA23) VH G100S (antibody, V domains shown) VH: EVQLLESGGGLVQPGGSLRLSCAASGFTFSKYFMFWVRQAPGKGLEWVSVISPSGGMTRYADSVKGRFTISRDNSKNTLYLQMNSLRAEDTAVYYCARVSYGGNSDYWGQGTLVTVSS VL: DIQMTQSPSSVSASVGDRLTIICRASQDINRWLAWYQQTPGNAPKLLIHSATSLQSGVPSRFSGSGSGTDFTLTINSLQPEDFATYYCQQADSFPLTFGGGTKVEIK"
  numeric-readout: 0.45
- binder: "C5A (XPA23) VH S54T (antibody, V domains shown) VH: EVQLLESGGGLVQPGGSLRLSCAASGFTFSKYFMFWVRQAPGKGLEWVSVISPTGGMTRYADSVKGRFTISRDNSKNTLYLQMNSLRAEDTAVYYCARVGYGGNSDYWGQGTLVTVSS VL: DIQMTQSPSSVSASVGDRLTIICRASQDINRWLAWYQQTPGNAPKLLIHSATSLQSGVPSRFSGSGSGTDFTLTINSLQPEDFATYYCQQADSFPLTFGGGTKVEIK"
  numeric-readout: -0.85

Ask: Dear colleague, I am looking for the recorded log10 of fold difference in affinity vs original of the following binder: C5A (XPA23) VH G56R (antibody, V domains shown) VH: EVQLLESGGGLVQPGGSLRLSCAASGFTFSKYFMFWVRQAPGKGLEWVSVISPSGRMTRYADSVKGRFTISRDNSKNTLYLQMNSLRAEDTAVYYCARVGYGGNSDYWGQGTLVTVSS VL: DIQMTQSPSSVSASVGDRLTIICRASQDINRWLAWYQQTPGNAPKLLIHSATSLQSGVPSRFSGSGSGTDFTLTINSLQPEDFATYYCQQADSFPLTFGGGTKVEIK
Reply: 0.32

Ask: Dear colleague, I am looking for the recorded log10 of fold difference in affinity vs original of the following binder: C5A (XPA23) VH Y101Q (antibody, V domains shown) VH: EVQLLESGGGLVQPGGSLRLSCAASGFTFSKYFMFWVRQAPGKGLEWVSVISPSGGMTRYADSVKGRFTISRDNSKNTLYLQMNSLRAEDTAVYYCARVGQGGNSDYWGQGTLVTVSS VL: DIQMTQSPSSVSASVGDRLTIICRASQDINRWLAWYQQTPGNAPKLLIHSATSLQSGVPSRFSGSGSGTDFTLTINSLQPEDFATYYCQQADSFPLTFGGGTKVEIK
Reply: -1.22
